Record: compiled pIC50 on UniProt:P10275 from multiple reports.
Sequence (P10275 whole entry): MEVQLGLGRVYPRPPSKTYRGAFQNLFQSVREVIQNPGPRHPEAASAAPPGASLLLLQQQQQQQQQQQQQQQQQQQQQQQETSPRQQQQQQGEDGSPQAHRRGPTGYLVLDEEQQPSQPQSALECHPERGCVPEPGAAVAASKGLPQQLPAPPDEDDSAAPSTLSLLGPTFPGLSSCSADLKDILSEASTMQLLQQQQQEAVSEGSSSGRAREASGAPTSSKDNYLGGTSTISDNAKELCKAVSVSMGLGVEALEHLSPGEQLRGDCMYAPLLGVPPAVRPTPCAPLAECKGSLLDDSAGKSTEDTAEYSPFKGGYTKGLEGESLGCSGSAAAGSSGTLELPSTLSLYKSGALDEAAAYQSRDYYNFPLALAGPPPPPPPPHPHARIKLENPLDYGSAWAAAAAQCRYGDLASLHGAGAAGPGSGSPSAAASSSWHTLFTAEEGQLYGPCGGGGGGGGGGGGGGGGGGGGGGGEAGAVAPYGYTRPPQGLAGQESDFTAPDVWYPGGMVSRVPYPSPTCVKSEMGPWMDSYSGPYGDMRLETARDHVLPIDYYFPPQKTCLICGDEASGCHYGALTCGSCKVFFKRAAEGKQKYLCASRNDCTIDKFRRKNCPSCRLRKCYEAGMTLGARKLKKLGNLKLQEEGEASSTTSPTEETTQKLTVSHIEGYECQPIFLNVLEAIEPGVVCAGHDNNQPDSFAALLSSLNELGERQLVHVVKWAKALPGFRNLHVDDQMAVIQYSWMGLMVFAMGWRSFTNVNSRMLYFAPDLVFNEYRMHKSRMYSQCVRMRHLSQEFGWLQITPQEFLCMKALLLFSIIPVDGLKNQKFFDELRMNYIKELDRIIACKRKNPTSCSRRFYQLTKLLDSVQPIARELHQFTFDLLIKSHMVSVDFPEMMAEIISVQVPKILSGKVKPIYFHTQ
pIC50: −log10 of the molar value.

In the examples that follow, each entry is paired with its recorded pIC50.
INSERT INTO measurements (cpd_smiles, observed_property, measurement) VALUES
  ('Cc1cc(F)ccc1-n1nc(C(F)(F)F)cc1-c1cc(F)c2c(c1)NC(=O)CO2', 'pIC50', '< 5.00'),
  ('C[C@]12Cn3cnc(-c4ccc(F)cc4)c3C=C1CCC[C@@H]2[C@](C)(O)c1ccc(Cl)s1', 'pIC50', '< 5.40'),
  ('CCn1nc(C)c(-c2ccc3c(c2)NC(=O)CO3)c1-c1ccc(F)cc1', 'pIC50', '< 5.00');

Turning to the following compound.
Looking up "Cc1cccc([C@@](C)(O)[C@H]2CCCC3=Cc4c(-c5ccc(F)cc5)ncn4C[C@@]32C)c1" , I see its pIC50 listed as < 5.40
